# Test system: 883617-216-R-J1-PDC tumor spheroids, viability;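 also: spheroids exposed to agents for 7 days before the viability read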
# assay_info: Anticancer human tumor 883617-216-R-J1-PDC patient-derived bladder carcinoma cell line growth inhibition [PI3K]
# condition_set: curve of first compound; second compound 0.00316 µM; spheroids with HUVEC and MSC
measurement_type: IC50 (µM)

1 = CC(C)n1nc(-c2ccc3oc(N)nc3c2)c2c(N)ncnc21 + COc1c(OCCCN2CCOCC2)ccc2c3n(c(=NC(=O)c4cnc(N)nc4)nc12)CCN3
2 = Cn1nccc1Nc1nccc(-c2ccn(C(CO)c3ccc(Cl)c(F)c3)c(=O)c2)n1 (stereo not drawn) + COc1c(OCCCN2CCOCC2)ccc2c3n(c(=NC(=O)c4cnc(N)nc4)nc12)CCN3
INPUT: Please tell me which of the two, 1 or 2 , has the higher reported IC50 value. When you have decided, please share the label of that item.
OUTPUT: 2
